experiment summary: inhibitors of TNFa-induced NFkB p65 translocation, primary screen, imaging, HUVEC, MLSMR starter and 10KST1 sets (AID 438);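 note: compound added about 3h40 before a 20 min TNFalpha stimulation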
particulars: HUVEC TNFa-induced p65 nuclear translocation; measured here: nuclei count (cytotoxicity indicator), at 2.08 µM
quantity name: cell count

COc1ccccc1N1CCN(CCOc2c(OC)cccc2OC)CC1
492
c1ccc(OCc2nn3c(-c4cccnc4)nnc3s2)cc1
598
CCCNC(=O)N(C)c1nncnc1C(=O)NC
503
COc1ccccc1-c1nn2c(-c3ccc(C(C)(C)C)cc3)nnc2s1
509
c1ccc2[nH]c(-c3cscn3)nc2c1
587
CCOC(=O)c1[nH]c2ccc(OC)cc2c1NC(=O)CCN1CCC(C)CC1
568
CC(C)Oc1ccc(/C(O)=C2/C(=O)C(=O)N(CCN3CCOCC3)C2c2ccccc2)cc1 (stereo not given)
564
Cc1c(CCC#N)c(N2CCCCC2)n2c(nc3ccccc32)c1C#N
547
CCCOc1ccc(-c2nnc(N)s2)cc1
608
CCOC(=O)c1ccc(N=CC2=C(O)CC(c3ccco3)CC2=O)cc1 (stereo not given)
411
CCCOc1ccc(/C(O)=C2/C(=O)C(=O)N(CCN3CCOCC3)C2c2ccccc2)cc1 (stereo not given)
365
CC(C)(C)n1cnc2cc(NS(=O)(=O)c3ccc(Br)cc3)ccc21
543
O=C(CNC1C(=O)Nc2ccccc21)Sc1ccccc1 (stereo not given)
636
COC(=O)c1ccc(=O)n(Cc2ccc3c(c2)OCO3)c1
394
CCc1c(C(=O)O)[nH]c2ccc(Br)cc12
581
CCn1c(-c2ccco2)n[nH]c1=S
428
COc1c2occc2c(OC)c2c(=O)cc(C)oc12
555
Cc1ccc(N(CN2C(=O)NC(C)(C)C2=O)CN2C(=O)NC(C)(C)C2=O)cc1
465
COC(=O)c1ccc(Cn2nnc3c(sc4nc(N5CCOCC5)c5c(c43)CCCC5)c2=O)o1
558
COc1ccc(N/C(=N\c2nc(C)cc(C)n2)NC(=O)C(C)C)cc1OC
568
